- EXPERIMENTAL PROTOCOL: Synergy of Shiva-1 and lysozyme, percent viability;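 note: Lysozyme at ten times the molar concentration of the peptide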
- Assay type: cell-based, Staphylococcus intermedius
- SETUP CONDITIONS: S. intermedius 20034
No end group written: not given here.
RECORDED ENDPOINT: viability at 0.01 µM
Could you give the number and then its unit, please?

Query :: # viability at 0.01 µM lookup, item MPRWRLFRRIDRVGKQIKQGILRAGPAIALVGDARAVG [Shiva-1]
Result :: 100%

Query :: # viability at 0.01 µM lookup, item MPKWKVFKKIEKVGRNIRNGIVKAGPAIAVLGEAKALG-NH2 (C-terminus assumed) [SB-37]
Result :: 100%

----------
For each record, write down the corresponding S. aureus (MRSA) MIC.
- System: S. aureus (MRSA)
- Assay type: cell-based, Staphylococcus aureus
- SETUP CONDITIONS: mean of three; 16 to 20 hours at 35° C.
No end group written: not given here.
Supply the numeric figure in µg/mL, leaving out any unit text.

Query :: # S. aureus (MRSA) MIC lookup, item FAVGLRAIKRALKKLRRGVRKVAKDL-NH2 [P157, reference compound]
Result :: 32

Query :: # S. aureus (MRSA) MIC lookup, item FAKKLAKLALKLAKL-NH2 [P44]
Result :: 8

Query :: # S. aureus (MRSA) MIC lookup, item FAKKLKKLAKLAKKL-NH2 [P46]
Result :: 64

Query :: # S. aureus (MRSA) MIC lookup, item FAKFLAKFLKKAL-NH2 [P111, FAKFLAKFLKKAL-NH2]
Result :: 8

Query :: # S. aureus (MRSA) MIC lookup, item FALLKALLKKAL-NH2 [P177, FALLKALLKKAL-NH2]
Result :: 8

Query :: # S. aureus (MRSA) MIC lookup, item VALALKALKKLLKKLKKLAKKAL-NH2 [P510]
Result :: 8

----------
- System: Stapholococcus aureus ATCC 25923
- EXPERIMENTAL PROTOCOL: Antimicrobial assay I, modified protocol (tryptic soy broth), MBC
- SETUP CONDITIONS: minimum bactericidal concentration, Table 4
No end group written: not given here.

SUBSTANCE	MBC S. aur A.25923
FAKKALKALKKL-NH2 [compound 47]	>50 µg/mL
FAKIIAKIAKIAKKIL-NH2 [compound 139]	INACT
KYKKALKKLAKLL-NH2 [compound 146]	75 µg/mL

----------
- System: E. coli UB1005
- Assay type: cell-based, Escherichia coli
- SETUP CONDITIONS: Table 12
No end group written: not given here.
RECORDED ENDPOINT: MIC E. coli UB1005 (µg/mL)
Supply the numeric figure in µg/mL, leaving out any unit text.

Query :: # MIC E. coli UB1005 lookup, item FAKLLAKALKKFAL-NH2 [P119 (81)]
Result :: 4

Query :: # MIC E. coli UB1005 lookup, item FAKKFAKKFKKFAKKFAKFAFAF-NH2 [P301 (147)]
Result :: 8

Query :: # MIC E. coli UB1005 lookup, item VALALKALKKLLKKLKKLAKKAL-NH2 [P510 (161)]
Result :: 8

Query :: # MIC E. coli UB1005 lookup, item FAKKLAKLALKLAKL-NH2 [P44 (26)]
Result :: 1

Query :: # MIC E. coli UB1005 lookup, item FAKKLAKKLAKLAL-NH2 [P45 (27)]
Result :: 4

----------
- Tested on: WI38
- SETUP CONDITIONS: MTT, 24 hours with peptide; normal fibroblast line
No end group written: not given here.
For each record, write down the corresponding WI38 LD50.
Supply the numeric figure in µg/mL, leaving out any unit text.

Query :: # WI38 LD50 lookup, item FAKKLAKKLKKLAKKLIGAVLKV-OH [SHIVA 11 [(1-16)ME(2-9]-COOH]
Result :: 34

Query :: # WI38 LD50 lookup, item FAKKLAKKLKKLAKKLAKKWKL-NH2 [P70]
Result :: 34

Query :: # WI38 LD50 lookup, item KWKLFKKIGAVLKVL-NH2 [P53, reference compound]
Result :: 32

Query :: # WI38 LD50 lookup, item FALALKLKKL-NH2 [P181]
Result :: 500

----------
For each record, write down the corresponding P. aerug (MIC).
- System: Pseudomonas aeruginosa ATCC 9027
- EXPERIMENTAL PROTOCOL: Antimicrobial assay I, MIC by OD measurement
- Format: cell-based
No end group written: not given here.
Could you give the number and then its unit, please?

Query :: # P. aerug (MIC) lookup, item VAKLLAKLAKKLL-NH2 [compound 48]
Result :: 5 µg/mL

Query :: # P. aerug (MIC) lookup, item FAKLLAKLAKKVL-NH2 [compound 124]
Result :: 100 µg/mL

Query :: # P. aerug (MIC) lookup, item FAKLLAKLAKKLL-NH2 [compound 43]
Result :: 100 µg/mL

Query :: # P. aerug (MIC) lookup, item VAKLLAKLAKKVL-NH2 [compound 154]
Result :: 100 µg/mL

----------
- System: S. epidermidis C621
- Format: cell-based, Staphylococcus epidermidis
- SETUP CONDITIONS: mean of three; 16 to 20 hours at 35° C.
No end group written: not given here.
RECORDED ENDPOINT: S. epidermidis C621 MIC (µg/mL)
Supply the numeric figure in µg/mL, leaving out any unit text.

Query :: Provide value of S. epidermidis C621 MIC for this record tested with S. epidermidis C621: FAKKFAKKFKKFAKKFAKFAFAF-NH2 [P301, reference compound]
Result :: 4

Query :: Provide value of S. epidermidis C621 MIC for this record tested with S. epidermidis C621: FAKLLAKLAKKVL-NH2 [P124]
Result :: 4

Query :: Provide value of S. epidermidis C621 MIC for this record tested with S. epidermidis C621: FAKLLAKALKKFAL-NH2 [P119, FAKLLAKALKKFAL-NH2]
Result :: 4

Query :: Provide value of S. epidermidis C621 MIC for this record tested with S. epidermidis C621: FAKLLAKALKKLL-NH2 [P55]
Result :: 2

Query :: Provide value of S. epidermidis C621 MIC for this record tested with S. epidermidis C621: KWKLFKKKTKLFKKFAKKLAKKL-NH2 [P73]
Result :: 4

----------
For each record, write down the corresponding viability at 10 µM.
- EXPERIMENTAL PROTOCOL: Synergy of Shiva-1 and lysozyme, percent viability;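 note: Lysozyme at ten times the molar concentration of the peptide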
- Type: cell-based, Staphylococcus aureus
- SETUP CONDITIONS: S. aureus
No end group written: not given here.

Query :: # viability at 10 µM lookup, item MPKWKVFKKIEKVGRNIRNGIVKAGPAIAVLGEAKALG-NH2 (C-terminus assumed) [SB-37]
Result :: 5.6%

Query :: # viability at 10 µM lookup, item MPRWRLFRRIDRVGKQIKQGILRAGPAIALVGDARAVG [Shiva-1]
Result :: 4.5%

----------
- Test system: P. aeruginosa H374
- Assay type: cell-based, Pseudomonas aeruginosa
- SETUP CONDITIONS: chloramphenicol + peptide at ¼ MIC, 0.5 or less = synergy
No end group written: not given here.
RECORDED ENDPOINT: FIC Index
Just the number.

Query :: Provide value of FIC Index for this record tested with P. aeruginosa H374: KLALKLALKALKAAKLA-NH2 [P150]
Result :: 0.75

Query :: Provide value of FIC Index for this record tested with P. aeruginosa H374: FAKLLAKALKKAL-NH2 [P102, FAKLLAKALKKAL-NH2]
Result :: 1.25

Query :: Provide value of FIC Index for this record tested with P. aeruginosa H374: FAKLLALALKKAL-NH2 [P97, FAKLLALALKKAL-NH2]
Result :: 1.25

Query :: Provide value of FIC Index for this record tested with P. aeruginosa H374: FAKLLAKALKKFL-NH2 [P118]
Result :: 1.25

Query :: Provide value of FIC Index for this record tested with P. aeruginosa H374: LPKWKVFKKIEKVGRNIRNGIVKAGPAIAVLGEAKALG-NH2 [P306, reference compound]
Result :: 0.75

Query :: Provide value of FIC Index for this record tested with P. aeruginosa H374: FAKLLAKALKKFAL-NH2 [P119, FAKLLAKALKKFAL-NH2]
Result :: 1.25

Query :: Provide value of FIC Index for this record tested with P. aeruginosa H374: FAKLLAKALKKLL-NH2 [P55]
Result :: 1.25

Query :: Provide value of FIC Index for this record tested with P. aeruginosa H374: FAKKLAKKLAKLL-NH2 [P75]
Result :: 0.75

Query :: Provide value of FIC Index for this record tested with P. aeruginosa H374: FAKKLAKKLAKLAL-NH2 [P45, FAKKLAKKLAKLAL-NH2]
Result :: 1.25

Query :: Provide value of FIC Index for this record tested with P. aeruginosa H374: FAKKLLAKALKL-NH2 [P110]
Result :: 1.25

Query :: Provide value of FIC Index for this record tested with P. aeruginosa H374: FAKLLAKALKLKL-NH2 [P101]
Result :: 1.25

Query :: Provide value of FIC Index for this record tested with P. aeruginosa H374: FALALKKALKALKKAL-NH2 [P34]
Result :: 1.25

Query :: Provide value of FIC Index for this record tested with P. aeruginosa H374: FAKFLAKFLKKAL-NH2 [P111, FAKFLAKFLKKAL-NH2]
Result :: 1.25

Query :: Provide value of FIC Index for this record tested with P. aeruginosa H374: FALALKALKKLAKKLKKLAKKAL-NH2 [P25]
Result :: 0.5

Query :: Provide value of FIC Index for this record tested with P. aeruginosa H374: FAKLLAKLAKKVL-NH2 [P124]
Result :: 1.25

Query :: Provide value of FIC Index for this record tested with P. aeruginosa H374: FAKKLAKKLKKLAKKLAK-OH [P71]
Result :: 0.75

Query :: Provide value of FIC Index for this record tested with P. aeruginosa H374: FALLKALLKKAL-NH2 [P177, FALLKALLKKAL-NH2]
Result :: 0.75

Query :: Provide value of FIC Index for this record tested with P. aeruginosa H374: VALALKALKKALKKLKKALKKAL-OH [P508]
Result :: 0.75

Query :: Provide value of FIC Index for this record tested with P. aeruginosa H374: FAKKLAKKLKKLAKKLAK-NH2 [P69]
Result :: 0.75

Query :: Provide value of FIC Index for this record tested with P. aeruginosa H374: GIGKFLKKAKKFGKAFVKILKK-NH2 [P42, reference compound]
Result :: 1.25

Query :: Provide value of FIC Index for this record tested with P. aeruginosa H374: FAKKLAKLAKKLAKAL-NH2 [P109]
Result :: 1.25

Query :: Provide value of FIC Index for this record tested with P. aeruginosa H374: FAKLLAKLAKKAL-NH2 [P54, FAKLLAKLAKKAL-NH2]
Result :: 1.25

Query :: Provide value of FIC Index for this record tested with P. aeruginosa H374: FALAAKALKKLAKKLKKLAKKAL-NH2 [P23]
Result :: 0.75

Query :: Provide value of FIC Index for this record tested with P. aeruginosa H374: VAKKLAKLAKKLAKLAL-NH2 [P50]
Result :: 1.25

Query :: Provide value of FIC Index for this record tested with P. aeruginosa H374: FAKKLAKKLKKLAKKLAKLAKKL-NH2 [P307, reference compound]
Result :: 0.375

Query :: Provide value of FIC Index for this record tested with P. aeruginosa H374: FAKKLAKKLL-NH2 [P59]
Result :: 0.75

Query :: Provide value of FIC Index for this record tested with P. aeruginosa H374: FALALKALKKLKKALKKAL-NH2 [P27]
Result :: 0.75

Query :: Provide value of FIC Index for this record tested with P. aeruginosa H374: KTKLFKKFAKKLAKKLKKLAKKL-OH [P80]
Result :: 0.5

Query :: Provide value of FIC Index for this record tested with P. aeruginosa H374: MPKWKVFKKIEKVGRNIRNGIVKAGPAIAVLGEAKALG-NH2 [P12, reference compound]
Result :: 1.25

Query :: Provide value of FIC Index for this record tested with P. aeruginosa H374: FAKLLAKALKKL-NH2 [P103]
Result :: 0.75

Query :: Provide value of FIC Index for this record tested with P. aeruginosa H374: FAKKLAKKLKKLAKLALAK-NH2 [P41]
Result :: 1.25

Query :: Provide value of FIC Index for this record tested with P. aeruginosa H374: KYKKALKKLAKLL-NH2 [P146]
Result :: 0.5

Query :: Provide value of FIC Index for this record tested with P. aeruginosa H374: FALAKLAKKAKAKLKKALKAL-NH2 [P26]
Result :: 0.75

Query :: Provide value of FIC Index for this record tested with P. aeruginosa H374: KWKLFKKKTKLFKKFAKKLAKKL-OH [P81]
Result :: 1.25

Query :: Provide value of FIC Index for this record tested with P. aeruginosa H374: FAKKLAKLAKKALAL-NH2 [P39, FAKKLAKLAKKALAL-NH2]
Result :: 0.75

Query :: Provide value of FIC Index for this record tested with P. aeruginosa H374: FAKLLKLAAKKLL-NH2 [P56]
Result :: 1.25

Query :: Provide value of FIC Index for this record tested with P. aeruginosa H374: FAKLAKKLL-NH2 [P60]
Result :: 0.5
